Value source: paper doi:10.1101/2022.02.04.479134

Each entry below carries its reported AC50.
Target: Recombinant Human TMPRSS2 (Homo sapiens)
Sequence (O15393 106-492): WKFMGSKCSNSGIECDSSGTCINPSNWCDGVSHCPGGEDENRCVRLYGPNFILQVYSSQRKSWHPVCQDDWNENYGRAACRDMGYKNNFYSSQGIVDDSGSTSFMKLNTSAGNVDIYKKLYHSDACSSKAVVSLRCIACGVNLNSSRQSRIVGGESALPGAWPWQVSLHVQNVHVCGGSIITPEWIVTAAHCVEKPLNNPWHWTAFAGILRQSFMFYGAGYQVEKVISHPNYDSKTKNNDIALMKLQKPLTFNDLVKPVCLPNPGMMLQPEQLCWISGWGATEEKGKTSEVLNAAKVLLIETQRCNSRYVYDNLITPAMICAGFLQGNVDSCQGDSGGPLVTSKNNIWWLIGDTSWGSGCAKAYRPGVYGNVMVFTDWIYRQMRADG
Test: biochemical
Type: biochemical
Conditions: 10 μM peptide, 0.4 μM TMPRSS2, 1 h RT; N/D = Not Detected; read-out: Biochemical (mass spectrometry) AC50
Structures can show the parent of a compound that is named as a salt.
ATTRIBUTE_MEASURED: AC50 (µM)

N=C(N)c1cccc(CC(NS(=O)(=O)c2cccc(-c3ccc(Cl)cc3Cl)c2)C(=O)N2CCC(CCN)CC2)c1 (centres unmarked); 0.28
CCOC(=O)c1cc(=O)c2c(OCC(COc3cccc4oc(C(=O)OCC)cc(=O)c34)OC(=O)[C@@H](N)CCCCN)cccc2o1 [Cromoglicate lisetil]; 25.1
CN(C(=O)C(Cl)Cl)c1ccc(OC(=O)c2ccco2)cc1 [Diloxanide furoate]; 21.7
CC(C)C[C@H](NC(=O)[C@H](Cc1ccccc1)NC(=O)c1cnccn1)B(O)O; 9.77
N=C(N)c1ccc(OCCCCCOc2ccc(C(=N)N)cc2)cc1 [Pentamidine isethionate]; 7.6
N=C(N)c1ccc2nc(-c3cc(CC(=O)N[C@@H](CC(=O)O)C(=O)O)cc(-c4cc(S(N)(=O)=O)ccc4O)c3O)[nH]c2c1; 1.4
COC[C@H]1C[C@@H](c2ncc(-c3ccc4c(c3)COc3cc5c(ccc6nc([C@@H]7CC[C@H](C)N7C(=O)[C@@H](NC(=O)OC)C(C)C)[nH]c65)cc3-4)[nH]2)N(C(=O)[C@H](NC(=O)OC)c2ccccc2)C1; 13.2
N=C(N)c1cccc(CC(NS(=O)(=O)c2cccc(-c3ccc(Cl)cc3Cl)c2)C(=O)N2CCC(NC(=O)NC3CCCCC3)CC2)c1 (centres unmarked); 0.26
N=C(N)NC(=O)c1nc(Cl)c(N)nc1N [Amiloride HCl]; 9
CC(=O)N[C@@H](CC(C)C)C(=O)N[C@@H](CC(C)C)C(=O)N[C@H](C=O)CCCNC(=N)N; 0.72
NC[C@H]1CC[C@H](C(=O)Oc2ccc(CCC(=O)O)cc2)CC1 [Cetraxate HCl]; 5.52
